FYI, the data here is from paper PMC6264549.

Recorded measurements of melting point, one per entry

For the compound shown here, CCNCCNC(=O)c1c(Cl)[nH]c(/C=C2\C(=O)Nc3ccc(F)cc32)c1CC [Compound 14r] , give the reported melting point. 232 to 233.1 °C

Similarly, CCN(CC)CCNC(=O)c1c(C)[nH]c(/C=C2\C(=O)Nc3ccccc32)c1Cl [Compound 14k] ? 238.5 to 240.1 °C

Lookup CCN(CC)CCNC(=O)c1c(C)[nH]c(/C=C2\C(=O)Nc3ccc(C)cc32)c1Cl [Compound 14l] 238.2 to 240 °C

Another: Cc1[nH]c(/C=C2\C(=O)Nc3ccc(F)cc32)c(Cl)c1C(=O)NCCN(C)C [Compound 14f] 271.8 to 274.2 °C

Another: CCN(CC)CCNC(=O)c1c(Cl)[nH]c(/C=C2\C(=O)Nc3ccc(F)cc32)c1Cl [Compound 14m] 269.1 to 270.3 °C

CCN(CC)CCNC(=O)c1c(C)[nH]c(/C=C2\C(=O)Nc3ccc(Cl)cc32)c1Cl [Compound 14i] , same question. 246 to 247 °C

Next record, please: CCN(CC)CCNC(=O)c1c(C)[nH]c(/C=C2\C(=O)Nc3ccc(F)cc32)c1Cl [Compound 14h] 245.6 to 246.9 °C

One more compound: CCCNC(=O)c1c(C)[nH]c(/C=C2\C(=O)Nc3ccc(F)cc32)c1Cl [Compound 14d] > 290 °C

Next:
Which melting point reading was recorded for the compound CCN(CC)CCNC(=O)c1cc(/C=C2\C(=O)Nc3ccc(F)cc32)[nH]c1Cl [Compound 14n] ? 233.5 to 234.7 °C

Now give it for CCNCCNC(=O)c1c(C)[nH]c(/C=C2\C(=O)Nc3ccc(F)cc32)c1Cl [Compound 14g] too. 211 to 211.8 °C

Entry to check: Cc1[nH]c(/C=C2\C(=O)Nc3ccc(F)cc32)c(Cl)c1C(=O)NCCCN(C)C [Compound 14e] 235.1 to 237.3 °C

# repeat for CCNCCNC(=O)c1c(Cl)[nH]c(/C=C2\C(=O)Nc3ccc(F)cc32)c1C [Compound 14p] 215 to 216.8 °C

// repeat for CCc1c(/C=C2\C(=O)Nc3ccc(F)cc32)[nH]c(Cl)c1C(=O)NCCN(CC)CC [Compound 14q] and report 245.2 to 246.8 °C

Next up: Cc1[nH]c(/C=C2\C(=O)Nc3ccc(F)cc32)c(Cl)c1C(=O)NC1CNC1 [Compound 14c] 230.5 to 232 °C

---

Measured Parameter: melting point

GET /values?readout=melting point&item= CCN(CC)CCNC(=O)c1c(Cl)[nH]c(/C=C2\C(=O)Nc3ccc(F)cc32)c1C [Compound 14o] 243.4 to 244 °C

And what about the molecule Cc1[nH]c(/C=C2\C(=O)Nc3ccc(F)cc32)c(Cl)c1C(=O)NCCN1CCOCC1 [Compound 14a] ? 268.5 to 269.7 °C

More entries:
Requested read-out: melting point. Entry: CCN(CC)CCNC(=O)c1c(Cl)[nH]c(/C=C2\C(=O)Nc3ccc(Br)cc32)c1C [Compound 14j] 248.1 to 248.5 °C

Similarly, Cc1[nH]c(/C=C2\C(=O)Nc3ccc(F)cc32)c(Cl)c1C(=O)N1CCN(C)CC1 [Compound 14b] ? 276.7 to 278.5 °C
